Data origin, for the record: patent US4985595A

Field: inhibition in vivo at 200 mg/kg. Provide a value for each of the compounds that follow.
# Test system: stress ulcer in rat
# ASSAY COMMENT: Inhibitory effect on stress ulcer in rat (restraint and water-immersion stress method)
# Assay type: in vivo
# CONDITION LABEL: 200 mg/kg, oral, rat, 30 minutes before immobilization and immersion in water at 21° C. for 7 hours; *P < 0.05, **P < 0.01; read-out: Inhibitory Effect (%)
Reply with just the number (in %).

Note inhibition in vivo at 200 mg/kg for the compound shown: CNC(=O)c1cc(OC)ccc1NCC(=O)NCCc1ccc(OC)c(OC)c1
65

Note inhibition in vivo at 200 mg/kg for the compound shown: COc1ccc(CCNC(=O)CNc2cccc(C(=O)N(C)C)c2)cc1OC
64

Note inhibition in vivo at 200 mg/kg for the compound shown: COc1ccc(CCNC(=O)CNc2cccc(C(=O)N3CCOCC3)c2)cc1OC
86

Note inhibition in vivo at 200 mg/kg for the compound shown: CNC(=O)c1ccc(OC)cc1NCC(=O)NCCc1ccc(OC)c(OC)c1
69

Note inhibition in vivo at 200 mg/kg for the compound shown: CCNC(=O)c1cccc(NCC(=O)NCCc2ccc(OC)c(OC)c2)c1
63

Note inhibition in vivo at 200 mg/kg for the compound shown: CNC(=O)c1cccc(NCC(=O)NCCc2ccc(OC)c(OC)c2)c1
72
